Molecular target: UniProtKB Q2FD70
Experiment: fluorescence polarization Kd with purified AdeB; cryo-EM structures in lipidic nanodiscs (7KGG, 7KGH, 7KGI)
Format: binding
Design: full-length; homotrimer
quantity: Kd (µM)
Please give a number only; it is taken to be in µM.

Look up Kd: CC[n+]1c(-c2ccccc2)c2cc(N)ccc2c2ccc(N)cc21 [Et, ethidium bromide]
2.5
